Source: patent US20240270821A1

target: human glucagon receptor (human) (UniProt P47871); experiment: cell-based or functional assay
Sequence (P47871 26-477): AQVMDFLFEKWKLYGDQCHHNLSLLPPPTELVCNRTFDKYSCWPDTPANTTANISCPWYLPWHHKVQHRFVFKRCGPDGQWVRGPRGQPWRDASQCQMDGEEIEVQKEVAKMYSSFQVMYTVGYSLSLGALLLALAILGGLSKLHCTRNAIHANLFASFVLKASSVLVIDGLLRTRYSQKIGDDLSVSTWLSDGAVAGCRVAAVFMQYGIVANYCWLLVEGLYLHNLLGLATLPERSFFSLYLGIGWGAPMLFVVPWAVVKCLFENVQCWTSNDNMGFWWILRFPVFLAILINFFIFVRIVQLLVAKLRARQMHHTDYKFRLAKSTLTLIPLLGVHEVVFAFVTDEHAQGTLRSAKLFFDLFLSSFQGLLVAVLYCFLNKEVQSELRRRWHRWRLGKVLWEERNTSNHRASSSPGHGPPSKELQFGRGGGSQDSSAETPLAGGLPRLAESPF
Starred links: 1 amine or outer side, 2 acyl side, 3 side chain; linkers in the order of their positions; H or OH if unused. Non-standard residues stand in square brackets, D forms with d. Groups on a side chain read outwards from the residue. No end group written: not given here. *: point of attachment. C20 diacid = O=C(O)CCCCCCCCCCCCCCCCCCC(=O)*; γGlu = O=C(O)[C@H](CCC(=O)[*:2])N[*:1]; αMeL = CC(C)C[C@](C)(N)C(=O)O; AEEA = NCCOCCOCC(=O)O; Aib = CC(C)(N)C(=O)O
metric: Relative cAMP EC50
Write your answer as a measured quantity: the number, then the unit.

binder: Y[Aib]QGTFTSDYSI[αMeL]LDKQAAK([AEEA-AEEA-γGlu-C20 diacid])QFVEWLIAGGPSSGEPPPAEG-NH2 [Example 332]
measured: 11.8 nM

binder: YXQGTXTSDXXIXLDXKAQXEFIEXLVEGGPSSGAPPPEGE (not fully specified; non-natural residues, lysine acylation, C-terminal amide; synthetic construct; SITE 2: note = 2-Aminoisobutyric Acid; SITE 6: note = alpha-methyl-2-fluoro-L-phenylalanine; SITE 10: note = 3-(4-Pyridyl)-L-alanine; SITE 11: note = alpha-methyl-L-serine; SITE 13: note = alpha-methyl-leucine; SITE 16: note = L-ornithine; SITE 17: note = Lysine is chemically mo) [Example 1158]
measured: 2.19 nM

binder: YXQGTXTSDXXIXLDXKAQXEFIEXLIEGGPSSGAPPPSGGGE (Non-natural residues; K acylated AEEA-(γGlu)2-C18 diacid; C-terminal amide; synthetic construct; SITE 2: note = 2-Aminoisobutyric Acid; SITE 6: note = alpha-methyl-2-fluoro-L-phenylalanine; SITE 10: note = 3-(4-Pyridyl)-L-alanine; SITE 11: note = alpha-methyl-L-serine; SITE 13: note = alpha-methyl-leucine; SITE 16: note = L-ornithine; SITE 17: note = Lysine is chemically mo) [Example 1180]
measured: 3.16 nM

binder: YXQGTFTSDXSQXLDXKAQXAFIEYLIEAGPSSGEPPPSGS (not fully specified; non-natural residues, (γGlu)2-C18 diacid lysine acylation, C-terminal amide; synthetic construct; SITE 2: note = 2-Aminoisobutyric Acid; SITE 10: note = 3-(4-Pyridyl)-L-alanine; SITE 13: note = alpha-methyl-leucine; SITE 16: note = L-ornithine; SITE 17: note = Lysine is chemically modified through conjugation of the epsilon-amino group of the Lysine side chain with (gamma-Gl)) [Example 1019]
measured: 4.36 nM

binder: YXQGTXTSDXXILLDXKAQXXFIEYLIEGGPSSGEPPPEGGEE (Aib, αMeF(2F), 4Pal, αMeS, Orn; acylated lysine; amide; synthetic construct; SITE 2: note = 2-Aminoisobutyric Acid; SITE 6: note = alpha-methyl-2-fluoro-L-phenylalanine; SITE 10: note = 3-(4-Pyridyl)-L-alanine; SITE 11: note = alpha-methyl-L-serine; SITE 16: note = L-ornithine; SITE 17: note = Lysine is chemically modified through conjugation of the epsi) [Example 605]
measured: 5.49 nM

Recorded Relative cAMP EC50 (binder YXQGTFTSDXSKXLDKKAQXAFIEYLIEGGPSSGAPPPSGS (synthetic construct; SITE 2: note = 2-Aminoisobutyric Acid; SITE 10: note = 3-(4-Pyridyl)-L-alanine; SITE 13: note = alpha-methyl-leucine; SITE 17: note = Lysine is chemically modified through conjugation of the epsilon-amino group of the Lysine side chain with (2-[2-(2-Amino-ethoxy)-ethoxy]-acetyl)) [Example 908] ): 8.11 nM

Recorded Relative cAMP EC50 (binder YXQGTFTSDFSXXLDKKAQXAFIEYLLEGGPSSGAPPPGGE (synthetic construct; SITE 2: note = 2-Aminoisobutyric Acid; SITE 12: note = L-ornithine; SITE 13: note = alpha-methyl-leucine; SITE 17: note = Lysine is chemically modified through conjugation of the epsilon-amino group of the Lysine side chain with (2-[2-(2-Amino-ethoxy)-ethoxy]-acetyl)-(gamma-Glu)) [Example 63] ): 4.1 nM

Recorded Relative cAMP EC50 (binder YXQGTXTSDXXIXLDXKAQXEFIEXLVEGGPSSGAPPPESE (not fully specified; acylated lysine AEEA-γGlu-C18 diacid; non-natural residues; C-terminal amide; synthetic construct; SITE 2: note = 2-Aminoisobutyric Acid; SITE 6: note = alpha-methyl-2-fluoro-L-phenylalanine; SITE 10: note = 3-(4-Pyridyl)-L-alanine; SITE 11: note = alpha-methyl-L-serine; SITE 13: note = alpha-methyl-leucine; SITE 16: note = L-ornithine; SITE 17: note = Lysine is chemically mo) [Example 1156] ): 2.94 nM

Recorded Relative cAMP EC50 (binder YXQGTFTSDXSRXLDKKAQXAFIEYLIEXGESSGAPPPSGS (non-natural residues, C-terminal amide, acylated Lys with fatty diacid; synthetic construct; SITE 2: note = 2-Aminoisobutyric Acid; SITE 10: note = 3-(4-Pyridyl)-L-alanine; SITE 13: note = alpha-methyl-leucine; SITE 17: note = Lysine is chemically modified through conjugation of the epsilon-amino group of the Lysine side chain with (2-[2-(2-Amino-ethoxy)-ethoxy]-acetyl)) [Example 224] ): 1.91 nM

Recorded Relative cAMP EC50 (binder YXQGTFTSDFSIXLDKKAQXAFIEYLLEGGPSSGEPPPSEG (synthetic construct; SITE 2: note = 2-Aminoisobutyric Acid; SITE 13: note = alpha-methyl-leucine; SITE 17: note = Lysine is chemically modified through conjugation of the epsilon-amino group of the Lysine side chain with (2-[2-(2-Amino-ethoxy)-ethoxy]-acetyl)-(gamma-Glu)-CO-(CH2) 18-CO2H; SITE 20: n) [Example 288] ): 5.17 nM
